experiment: Cytotoxicity against human MCF10A cells after 72 hrs by MTT assay; format: cell-based, MCF-10A; settings: read-out: ED50
readout-kind: CC50 at 72 h (µg/mL)
Response body: numeric value in µg/mL, unit text excluded.

Exercise: Quick one: CC50 at 72 h of CCc1cccc2c1ccc1c3occ(C)c3c(=O)oc21 ?
Solution: 2.7

----------
assay: Cytotoxicity against human KBVIN cells after 72 hrs by SRB assay; format: functional; details: read-out: ED50 (the source's name)
Catalogue of EC50 readings, one per entry.
Response body: numeric value in µg/mL, unit text excluded.

Some entries whose results are on file:
>>> meas_value("COc1cccc2c1ccc1c3occ(C)c3c(=O)oc21")
12
>>> meas_value("Cc1coc2c1c(=O)oc1c3cccc(C(C)C)c3ccc21")
7.3
>>> meas_value("Cc1coc2c1c(=O)oc1c3cccc(F)c3ccc21")
15
>>> meas_value("CCCc1cccc2c1ccc1c3occ(C)c3c(=O)oc21")
11
>>> meas_value("CCc1cccc2c1ccc1c3occ(CC)c3c(=O)oc21")
15

Exercise: Quick one: EC50 of CCOc1cccc2c1ccc1c3occ(C)c3c(=O)oc21 ?
Solution: 5.3

Exercise: Quick one: EC50 of CCc1cccc2c1ccc1c3oc(C)cc3c(=O)oc21 ?
Solution: 13

Exercise: Quick one: EC50 of CCc1coc2c1c(=O)oc1c3ccccc3ccc21 ?
Solution: 6.6

----------
test: Cytotoxicity against human 184A1 cells after 72 hrs by MTT assay; format: cell-based; conditions: read-out: ED50
readout-kind: CC50 at 72 h

Exercise: Quick one: CC50 at 72 h of CCc1cccc2c1ccc1c3occ(C)c3c(=O)oc21 ?
Solution: 4.4 µg/mL
